Where do the numbers come from? From patent US20180250395A1.

Biological target: T1, recombinant human CD47 extracellular domain (ECD), His-tagged, monomer (human, UniProt Q08722 19-141)
T1 construct: C-terminal 6xHis tag; monomeric fraction from Superdex 200; also called human CD47 ECD; CD47-ECD monomer
Assay: ProteOn SPR; mAb captured, ECD monomer as analyte
quantity measured: Kd (nM)
Supply the numeric figure in nM, leaving out any unit text.

Return Kd (reported value) for this binder: C47B147 (antibody, V domains shown, HFA variant of C47B116; human IgG2sigma/kappa) VH: EVQLVQSGAEVKKPGESLKISCKGSGYTFTDYNMHWVRQMPGKGLEWMGDIYPYNGGTGYNQKFKGQVTISADKSISTAYLQWSSLKASDTAMYYCARGGWHAMDSWGQGTLVTVSS VL: DIVMTQSPDSLAVSLGERATINCRSRQSIVHTNRYTYLAWYQQKPGQPPKLLIYKVSNRFSGVPDRFSGSGSGTDFTLTISSLQAEDVAVYYCFQGSHVPYTFGGGTKLEIK 9.55
